The measurements presented in this section are drawn from PubChem BioAssay (NCI).

- Test system: CCRF-CEM leukemia
- TEST: NCI-60 one-dose screen, 48 h (100 = growth as untreated, 0 = no growth, -100 = all killed)
- EXPERIMENTAL CONDITIONS: 10 µM unless noted
The panel holds about 83,000 compounds, 20% with a hit somewhere; the sample as a whole holds those more often.
EXPERIMENTAL ENDPOINT: growth (%)

>>> experimental_result("CCOC(=O)Nc1cc(Cl)c([N+](=O)[O-])c(NC(=O)OCC)n1")
33.1
>>> experimental_result("CC1COC(=O)C1 (centres undefined)")
95.4
>>> experimental_result("CC(=O)C1C(=O)N(C)C(=O)N(C)C1=O")
97.2
>>> experimental_result("S=P(Nc1ccccc1)(Nc1ccccc1)c1ccccc1")
95.3
>>> experimental_result("CNC(=O)Oc1ccccc1-c1ccccc1")
94.1
>>> experimental_result("CC(C)(C)N(Cc1ccccc1)N=O")
98.4
>>> experimental_result("O=C1NC2(CCNCC2)Nc2ccccc21")
94.9
>>> experimental_result("CC(=O)O[C@@H]1C2=C(C)C3(CC3)[C@@](C)(O)C(=O)C2=C[C@@]1(C)CO")
10.9
>>> experimental_result("Cc1cc(NC(=O)/C=C/c2ccc([N+](=O)[O-])cc2)ccc1S(=O)(=O)F")
98.2
>>> experimental_result("CC(C)N=C(NC(C)C)N1CC1")
116
>>> experimental_result("Nc1ccc([N+](=O)[O-])c2c1Oc1ccccc1O2")
91.2
>>> experimental_result("CC1(C)N=C(N)N=C(N)N1c1ccc(CCCCc2ccc(Cl)cc2S(=O)(=O)F)c(Cl)c1")
13.1
>>> experimental_result("Cc1ccc2oc(=O)c3c(c2c1)OC(N)=C(C#N)C3c1ccco1 (centres undefined)")
96.4
>>> experimental_result("CC(/C=N/N=C(N)N)=N\\N=C(N)N")
53
>>> experimental_result("CCOC(=O)c1cnc(SCc2ccc(Cl)c(Cl)c2)nc1N1CC1")
38
>>> experimental_result("Nc1c(Br)cc([N+](=O)[O-])cc1[N+](=O)[O-]")
118
>>> experimental_result("COc1cc(C2(C#N)CCN(C)CC2)cc(OC)c1OC")
116
>>> experimental_result("CC(/C=N/N=C(N)N)=N/N=C(N)N")
90.1
>>> experimental_result("c1ccc2nc(OCCN3CC3)ccc2c1")
31.7
>>> experimental_result("CCOCC1(CCc2ccccc2)C(=O)NC(=S)NC1=O")
100
>>> experimental_result("CC1([N+](=O)[O-])COP(=O)(Nc2ccc(F)cc2)OC1 (centres undefined)")
96.3
>>> experimental_result("C=C=[CH][Sn]([c]1ccccc1)([c]1ccccc1)[c]1ccccc1")
-0.102
>>> experimental_result("NCCc1cc(O)c(O)cc1O")
65.7
>>> experimental_result("N#C[Se]CCN1C(=O)C2C(C1=O)[C@H]1C=C[C@@H]2S1 (some centres undefined)")
8.31

---

- System: HL-60(TB) leukemia
- TEST: NCI-60 one-dose screen, 48 h (100 = growth as untreated, 0 = no growth, -100 = all killed)
- EXPERIMENTAL CONDITIONS: 10 µM unless noted
About 83,000 compounds went through this panel and 20% of them were active in at least one assay; those are over-represented in the sample as a whole.
EXPERIMENTAL ENDPOINT: growth (%)

>>> experimental_result("Cc1nn(-c2cc(NC3CCC(O)CC3)c3c(=O)[nH]c(CCC(F)(F)F)cc3c2)c2c1C(=O)CC(C)(C)C2 (centres undefined)")
28
>>> experimental_result("CCOC(=O)C1=C(C)NC(SCc2nnc(-c3ccc(Cl)cc3)o2)=NC1c1ccc(Br)cc1 (centres undefined)")
22.5
>>> experimental_result("COc1cc(/C=C/C(=O)N2c3ccccc3CC2C)c(OC)c2c1OCO2 (centres undefined)")
91.7
>>> experimental_result("O=C(Cn1nnc2ccccc21)N/N=C/c1c[nH]c2ccccc12")
31.1
>>> experimental_result("[O-][n+]1c2ccccc2[n+]([O-])c2c3ccccc3[nH]c21")
100
>>> experimental_result("CCCCCCCC/C=C\\CCCCCCCCOc1cccc(CC(=O)NCC[N+]2(C)CCCCC2)c1")
28
>>> experimental_result("CC(=O)c1ccc(Nc2nc(Cl)nc(Oc3c(Cl)cccc3Cl)n2)cc1")
97.8
>>> experimental_result("C=C1C(=O)O[C@H]2[C@H](O)[C@@H](C)CCC/C(C)=C/CC[C@@]3(C)O[C@@H]3C[C@@H]12")
92.5
>>> experimental_result("CNC(=O)Oc1cc(C(C)C)ccc1Sc1ccc(C(C)C)cc1OC(=O)NC")
40.4
